Assembled from different publications: pKi for Vasopressin V1b receptor (Homo sapiens, UniProt P47901).
pKi: −log10 of the molar value.

Please state, for each entry, its recorded pKi.
1. CC(C)(C)NC(=O)Cn1c(-c2cccc(Cl)c2)nc2ccc([C@H]3C[C@@H](CN4CCCCC4)C3)cc2c1=O
2. O=C(C(c1ccccc1)n1c(=O)n(S(=O)(=O)c2ccc(Cl)s2)c2ccc(Cl)cc21)N1CCN(c2ccncc2)CC1 (stereo not shown)
3. COc1ccc(S(=O)(=O)N2C(=O)C(c3ccccc3OC)(N3CCN(c4ccncc4)CC3)c3cc(Cl)ccc32)cc1 (stereo not shown)

Outgoing:
1: > 9.00; 2: 5.00 to 6.30; 3: 6.30 to 7.30

Quick batch: pKi for everything below.
1. CCOc1ccccc1C1(N2CCN(c3ccncc3)CC2C)C(=O)N(S(=O)(=O)c2cccc3cccnc23)c2ccc(C#N)cc21 (racemic)
2. CCOc1ccc(CC)cc1C1(N2CCN(c3ccnc(C(C)C)c3)CC2)C(=O)N(S(=O)(=O)c2ccc(OC)cn2)c2ccc(C#N)cc21 (racemic)
3. CCOc1ncccc1C1(NC(=O)N2CCC(N3CCNCC3)CC2)C(=O)N(S(=O)(=O)c2ccc(OC)cc2OC)c2ccc(C#N)cc21 (racemic)

Outgoing:
["> 8.00", "> 8.00", "> 8.00"]

Dear colleague, could you please provide pKi for the compounds listed below?
1. CCOc1nc(Cl)ccc1C1(N2CCN(c3ccnc(C(C)C)c3)CC2)C(=O)N(S(=O)(=O)c2ccc(OC)cn2)c2ccc(C#N)cc21 (racemic)
2. COc1ccc(S(=O)(=O)n2c(=O)n(C(C(=O)N3CC[C@@H](CN4CCN(Cc5ccccc5)CC4)C3)c3ccccc3)c3cc(C#N)ccc32)cc1 (stereo partly shown)
3. COc1ccc(S(=O)(=O)n2c(=O)n(C(C(=O)N3CCC3)c3ccccc3)c3cc(Cl)ccc32)cc1 (stereo not shown)

Outgoing:
1. 7.30 to 8.00
2. > 7.00
3. 5.00 to 6.30
